# assay_comment: Tissue distribution after single I.P. administration
# Assay type: in vivo, male Swiss Albino Mice
# condition_summary: mouse, brain, ip; 24 hours after single administration I.P. 45 mg/Kg; read-out: Brain to plasma
readout_label: Kp at 24 h
Just the number, please, no unit attached.

Just so you know, measured Kp at 24 h for CCCCc1cn(-c2ccc(-c3nnc(-c4ccccc4C(F)(F)F)o3)cc2)nn1 [Compound 5] came out at 1.75

###

# assay_comment: Pharmacokinetic studies, single administration
# Format: in vivo, male Swiss albino mice
# condition_summary: mouse, plasma; I.T., 0.08 mg/kg
readout_label: AUC(0-t)

Just so you know, measured AUC(0-t) for CCCCc1cn(-c2ccc(-c3nnc(-c4ccccc4C(F)(F)F)o3)cc2)nn1 came out at 791 ng·h/mL

###

# assay_comment: Pharmacokinetic studies, single administration
# Type: in vivo, male Swiss albino mice
# condition_summary: mouse, plasma, po; P.O., 45 mg/kg
readout_label: Cmax
Give the figure together with its unit, number first.

Just so you know, measured Cmax for CCCCc1cn(-c2ccc(-c3nnc(-c4ccccc4C(F)(F)F)o3)cc2)nn1 came out at 1350 ng/mL

###

# assay_comment: Pharmacokinetic studies, single administration
# Assay type: in vivo, male Swiss albino mice
# condition_summary: mouse, in vivo, iv; I.V., 1 mg/kg
readout_label: Vd (L/kg)
Please state the figure in L/kg; there is no need to write the unit.

Just so you know, measured Vd for CCCCc1cn(-c2ccc(-c3nnc(-c4ccccc4C(F)(F)F)o3)cc2)nn1 came out at 8.2

###

# assay_comment: Pharmacokinetic studies, single administration
# Assay type: in vivo, male Swiss albino mice
# condition_summary: mouse, plasma, ip; I.P. 1, 45 mg/kg, TWEEN-based vehicle
readout_label: Tmax (h)
Please state the figure in h; there is no need to write the unit.

Just so you know, measured Tmax for CCCCc1cn(-c2ccc(-c3nnc(-c4ccccc4C(F)(F)F)o3)cc2)nn1 came out at 2

###

# assay_comment: Pharmacokinetic studies, single administration
# Format: in vivo, male Swiss albino mice
# condition_summary: mouse, in vivo, iv; I.V., 1 mg/kg
readout_label: clearance (mL/min/kg)
Please state the figure in mL/min/kg; there is no need to write the unit.

Just so you know, measured clearance for CCCCc1cn(-c2ccc(-c3nnc(-c4ccccc4C(F)(F)F)o3)cc2)nn1 came out at 40

###

# assay_target: CYP3A4 (Homo sapiens, UniProt P08684)
# Construct: 158 µl of Human Liver Microsome working stock solution; from tissue; host or cells: human liver microsomes
# Sequence (P08684 whole entry): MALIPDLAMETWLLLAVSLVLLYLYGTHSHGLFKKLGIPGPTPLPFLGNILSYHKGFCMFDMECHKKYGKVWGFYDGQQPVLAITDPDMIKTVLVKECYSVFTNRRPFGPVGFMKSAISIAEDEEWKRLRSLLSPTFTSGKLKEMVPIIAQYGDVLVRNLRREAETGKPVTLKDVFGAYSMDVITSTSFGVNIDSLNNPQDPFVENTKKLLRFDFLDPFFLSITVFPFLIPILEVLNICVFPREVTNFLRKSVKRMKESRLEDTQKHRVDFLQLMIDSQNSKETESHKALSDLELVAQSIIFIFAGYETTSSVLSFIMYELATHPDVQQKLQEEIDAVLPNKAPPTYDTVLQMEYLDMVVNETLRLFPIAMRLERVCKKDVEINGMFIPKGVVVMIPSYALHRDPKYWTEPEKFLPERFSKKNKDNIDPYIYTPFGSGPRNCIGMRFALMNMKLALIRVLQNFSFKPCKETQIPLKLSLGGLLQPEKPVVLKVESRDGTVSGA
# assay_comment: Cytochrome P450 inhibition
# Assay type: in vitro ADME
# condition_summary: 3A4, Human Liver Microsome
pIC50: −log10 of the molar value.
readout_label: pIC50

Just so you know, measured pIC50 for CCCCc1cn(-c2ccc(-c3nnc(-c4ccccc4C(F)(F)F)o3)cc2)nn1 came out at < 4.52

###

# assay_comment: Pharmacokinetic studies, single administration
# Assay type: in vivo, male Swiss albino mice
# condition_summary: mouse, plasma, ip; I.P. 2, 10 mg/kg, Solutol-based vehicle
readout_label: AUC(0-t) (ng·h/mL)
Please state the figure in ng·h/mL; there is no need to write the unit.

Just so you know, measured AUC(0-t) for CCCCc1cn(-c2ccc(-c3nnc(-c4ccccc4C(F)(F)F)o3)cc2)nn1 came out at 5350

###

# Test system: PANC-1 cell line
# assay_comment: Cytotoxicity, cell count method
# Assay type: cell-based
# condition_summary: Homo sapiens, PANC-1, 72 hours of incubation
readout_label: IC50
Give the figure together with its unit, number first.

Just so you know, measured IC50 for CCCCc1cn(-c2ccc(-c3nnc(-c4ccccc4C(F)(F)F)o3)cc2)nn1 came out at 720 nM

###

# assay_target: CYP2B6 (Homo sapiens)
# Sequence (P20813 whole entry): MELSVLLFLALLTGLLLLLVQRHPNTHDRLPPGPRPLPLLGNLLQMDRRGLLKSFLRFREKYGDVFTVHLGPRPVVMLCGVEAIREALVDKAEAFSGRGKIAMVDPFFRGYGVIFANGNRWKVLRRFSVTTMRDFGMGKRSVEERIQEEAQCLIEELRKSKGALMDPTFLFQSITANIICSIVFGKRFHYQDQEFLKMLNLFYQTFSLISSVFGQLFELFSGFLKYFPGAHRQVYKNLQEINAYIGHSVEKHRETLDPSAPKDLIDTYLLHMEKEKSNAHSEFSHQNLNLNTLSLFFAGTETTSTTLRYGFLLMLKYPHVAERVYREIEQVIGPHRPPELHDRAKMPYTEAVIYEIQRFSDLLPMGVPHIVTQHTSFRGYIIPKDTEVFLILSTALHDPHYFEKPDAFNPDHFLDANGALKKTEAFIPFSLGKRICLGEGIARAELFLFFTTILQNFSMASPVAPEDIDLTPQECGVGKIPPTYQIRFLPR
readout_label: IC50

Lab note: molecule CCCCc1cn(-c2ccc(-c3nnc(-c4ccccc4C(F)(F)F)o3)cc2)nn1 tested on CYP2B6 (Homo sapiens); recorded IC50 was > 30 µM

###

# Test system: MCF10a
# assay_comment: Cytotoxicity in non-tumor cells, cell count method
# Format: cell-based, human
# condition_summary: Homo sapiens, MCF-10A; MCF10a, 72 hours of incubation, cell count method
# Method: The non-specific toxicity of the compounds is evaluated in non-tumor immortalized cells with cell count and / or MTS methods, and in primary Peripheral Blood Mononuclear Cells (PBMC) with the ATP-based method. Cells were seeded at 3 to 5 x 10^4 cells/well density depending on cell lines and maintained at 37°C in 5% CO2. After 24 hours cells were treated with ascending concentrations of the investigational compounds and the reference (5-fluoro-Uracyl) in a range from 0 to 100 µM. […]
readout_label: IC50 (µM)
Please state the figure in µM; there is no need to write the unit.

Just so you know, measured IC50 for CCCCc1cn(-c2ccc(-c3nnc(-c4ccccc4C(F)(F)F)o3)cc2)nn1 came out at 440

###

# Test system: PBMC
# assay_comment: Cytotoxicity in primary cells, ATP-based method
# Format: cell-based, human
# condition_summary: Homo sapiens; PBMC, 72 hours of incubation, ATP-based method
readout_label: IC50
Give the figure together with its unit, number first.

Just so you know, measured IC50 for CCCCc1cn(-c2ccc(-c3nnc(-c4ccccc4C(F)(F)F)o3)cc2)nn1 came out at 200 µM
